- Tested on: SR leukemia
- protocol.summary: NCI-60 one-dose screen, 48 h (100 = growth as untreated, 0 = no growth, -100 = all killed)
- condition.description: 10 µM unless noted
The panel holds about 83,000 compounds, 20% with a hit somewhere; the sample as a whole holds those more often.
Record Condition met whenever growth is at -20% or higher; record Condition not met when lower.

Answered cases to consult:
compound	class.label
Cc1ccc(O)cc1Nc1nc(SCCN2CCOCC2)nc2c1cnn2CC(Cl)c1ccc(Br)cc1 (centres undefined)	Condition not met
Cc1ccc2c(c1)nc(-c1ccccc1)n2CC(=O)N=Nc1c(O)[nH]c2ccc(Cl)cc12	Condition not met
C/C(=N/O)c1ccc(NC(=O)CSc2nnc(-c3ccc4nc(-c5ccc(Cl)cc5)[nH]c4c3)o2)cc1	Condition met
Cc1ccc(C(C(=O)NC2CCCCC2)N(Cc2ccccc2Cl)C(=O)c2ccc(CN3CCOCC3)o2)o1 (centres undefined)	Condition met
O=C(NN1C(=O)/C(=C/C=C/c2ccc([N+](=O)[O-])o2)SC1=S)c1ccc([N+](=O)[O-])cc1	Condition met
COc1c2c(cc3c1C(CCc1ccccc1)N(C)CC3)OCO2 (centres undefined)	Condition met
Cn1cc(-c2cc(N)n3nc(-c4c[nH]c5ccc(Cl)cc45)cc3n2)c2cccnc21	Condition not met
COc1ccc2c(c1)C(=O)N(C)C2C1c2c(cc3c(c2OC)OCO3)CCN1C (centres undefined)	Condition met

With those in mind, consider the next compound.
Enquiry: Kindly determine if growth recorded for Nc1cc(-c2c[nH]c3ccc(Cl)cc23)nc2cc(-c3c[nH]c4ccccc34)nn12 is above or exactly -20%.
Return: Condition met
